# IC50 measurements, system: PIK3CD (Human)
Number only, in nM; omit the unit.

**Query** Give its IC50 value. Item: `CCC(=O)N1CC[C@H](Oc2ncnc3c2nc(CC(C)C)n3CC)C1`
**Result** 240

**Query** Give its IC50 value. Item: CCn1ncc(-c2nc3c(OC4CCC(C(=O)N5CCOCC5)C4)ncnc3n2C)c1C (centres undefined)
**Result** 220

**Query** Give its IC50 value. Item: `CCn1ncc(-c2nc3c(O[C@H]4CCN(C(C)=O)C4)ncnc3n2C)c1C`
**Result** 56

**Query** Give its IC50 value. Item: `CCn1c(-c2cnc(OC)nc2)nc2c(O[C@H]3CCN(C(=O)C4CC4)C3)ncnc21`
**Result** 6.3

**Query** Give its IC50 value. Item: `CCn1ncc(-c2nc3c(O[C@H]4CCN(C(=O)C5CC(F)(F)C5)C4)ncnc3n2C)c1C`
**Result** 13

**Query** Give its IC50 value. Item: `CCn1c(-c2cnc(C)nc2)nc2c(O[C@H]3CCN(C(=O)N4CC(F)C4)C3)ncnc21`
**Result** 5.1

**Query** Give its IC50 value. Item: `CCn1ncc(-c2nc3c(O[C@H]4CCN(S(=O)(=O)C(F)(F)F)C4)ncnc3n2C)c1C`
**Result** 1000

**Query** Give its IC50 value. Item: `CCn1c(-c2cnc(C)nc2)nc2c(O[C@H]3CCN(C(=O)OC(C)(C)C)[C@@H]3C)ncnc21`
**Result** 4

**Query** Give its IC50 value. Item: `CCn1ncc(-c2nc3c(O[C@H]4CCN(C(=O)c5ccnc(C)c5)C4)ncnc3n2C)c1C`
**Result** 25

**Query** Give its IC50 value. Item: `CCC(=O)N1CC[C@H](Oc2ncnc3c2nc(-c2cnc(C(C)(C)C)s2)n3CC)C1`
**Result** 2.2

**Query** Give its IC50 value. Item: `CCn1c(-c2ccc(OC)nc2)nc2c(O[C@H]3CCN(C(=O)C4CC4)C3)ncnc21`
**Result** 1

**Query** Give its IC50 value. Item: `CCn1c(-c2cnc(C)nc2)nc2c(O[C@H]3CCN(C(=O)N4CCC(C)(C)C4)C3)ncnc21`
**Result** 3.8

**Query** Give its IC50 value. Item: `CCn1c(N(C)CCOC)nc2c(O[C@H]3CCN(C(=O)OC(C)(C)C)C3)ncnc21`
**Result** 920

**Query** Give its IC50 value. Item: CCn1c(N2CCC(C)C2)nc2c(O[C@H]3CCN(C(=O)OC(C)(C)C)C3)ncnc21 (some centres undefined)
**Result** 570

**Query** Give its IC50 value. Item: `CCn1ncc(-c2nc3c(S[C@H]4CCN(c5ccncn5)C4)ncnc3n2C)c1C`
**Result** 6

**Query** Give its IC50 value. Item: `CCn1ncc(-c2nc3c(O[C@H]4CCN(C(=O)c5cc(C)[nH]n5)C4)ncnc3n2C)c1C`
**Result** 28

**Query** Give its IC50 value. Item: `CCn1ncc(-c2nc3c(S(=O)(=O)[C@H]4CCN(C(=O)C5CCOCC5)C4)ncnc3n2C)c1C`
**Result** 960

**Query** Give its IC50 value. Item: `CCn1c(-c2cnc(C)nc2)nc2c(O[C@H]3CCN(C(=O)N4CCC4)C3)ncnc21`
**Result** 1.3

**Query** Give its IC50 value. Item: `CCn1ncc(-c2nc3c(O[C@H]4CCN(C(=O)c5coc(C)n5)C4)ncnc3n2C)c1C`
**Result** 6.5

Cited source for all entries: the Kinase Knowledgebase extract (Sharma et al. 2016)
